Provenance of the data: ChEMBL document CHEMBL1909626

target_or_system: Histone deacetylase
method_summary: Inhibition of HDAC in human HeLa cell extract assessed as fluorophore release by fluorescence spectrophotometry
Assay type: protein assay
measured_attribute: IC50 (µM)

Examples with answers:
>>> value_reported("O=C(CCCC1CCN(S(=O)(=O)c2cccc(-c3cnco3)c2)CC1)NO")
0.213
>>> value_reported("O=C(CCCC1CCN(S(=O)(=O)c2ccc3ccccc3c2)CC1)NO")
0.128

[A] CC(C)c1ccc(S(=O)(=O)N2CCC(CCCC(=O)NO)CC2)cc1
[B] Cc1cc(S(=O)(=O)N2CCC(CCCC(=O)NO)CC2)cc2ccccc12
Task: Which entry has a larger number for IC50, A or B ? Answer = label.
Result: A
(A: 0.537 µM, B: 0.124 µM)

[A] O=C(CCCC1CCN(S(=O)(=O)c2cccc3ccccc23)CC1)NO
[B] COc1ccc(S(=O)(=O)N2CCC(CCCC(=O)NO)CC2)cc1OC
Task: Return label of the item with the larger IC50. Candidates: A , B . Answer with the label corresponding to your selection.
Result: B

---

target_or_system: Histone deacetylase (Homo sapiens) (UniProt Q13547+O15379+Q9UBN7+Q92769+Q9UQL6+Q8WUI4+Q9BY41+Q96DB2+P56524+Q9UKV0+Q969S8)
settings: HeLa, at 1 µM
Description: Inhibition of HDAC in human HeLa cell extract assessed as fluorophore release at 1 uM by fluorescence spectrophotometry
measured_attribute: inhibition (%)

>>> value_reported("O=C(CCCC1CCN(S(=O)(=O)c2ccccc2)CC1)NO")
63
>>> value_reported("Cc1cc(S(=O)(=O)N2CCC(CCCC(=O)NO)CC2)cc2ccccc12")
82
>>> value_reported("O=C(CCCC1CCN(S(=O)(=O)c2ccc3ccccc3c2)CC1)NO")
68
>>> value_reported("O=C(CCCC1CCN(S(=O)(=O)Nc2ccccc2)CC1)NO")
70
>>> value_reported("Cc1cc(C)cc(S(=O)(=O)N2CCC(CCCC(=O)NO)CC2)c1")
65
>>> value_reported("O=C(CCCC1CCN(S(=O)(=O)c2cccc(C(F)(F)F)c2)CC1)NO")
57
>>> value_reported("CN(Cc1ccccc1)S(=O)(=O)N1CCC(CCCC(=O)NO)CC1")
56
>>> value_reported("O=C(CCCC1CCN(S(=O)(=O)c2ccc3c(c2)OCCO3)CC1)NO")
68
>>> value_reported("CN(c1ccccc1)S(=O)(=O)N1CCC(CCCC(=O)NO)CC1")
48
>>> value_reported("O=C(CCCC1CCN(S(=O)(=O)c2cccc(-c3cnco3)c2)CC1)NO")
75
>>> value_reported("CC(C)(C)c1ccc(S(=O)(=O)N2CCC(CCCC(=O)NO)CC2)cc1")
51
>>> value_reported("COc1ccc(S(=O)(=O)N2CCC(CCCC(=O)NO)CC2)cc1OC")
71
>>> value_reported("Cc1cccc(S(=O)(=O)N2CCC(CCCC(=O)NO)CC2)c1")
61

---

target_or_system: Histone deacetylase (Homo sapiens) (UniProt Q13547+O15379+Q9UBN7+Q92769+Q9UQL6+Q8WUI4+Q9BY41+Q96DB2+P56524+Q9UKV0+Q969S8)
settings: HeLa, at 1 µM
measured_attribute: inhibition (%)

Below, each entry is followed by its recorded inhibition result.
>>> value_reported("O=C(CCCC1CCN(S(=O)(=O)c2ccc(-c3cnco3)cc2)CC1)NO")
74
>>> value_reported("CC(C)c1ccc(S(=O)(=O)N2CCC(CCCC(=O)NO)CC2)cc1")
66

[I] O=C(CCCC1CCN(S(=O)(=O)NCc2ccccc2)CC1)NO
[II] O=C(CCCC1CCN(S(=O)(=O)c2cccc(Cl)c2)CC1)NO
Task: Quick check, higher inhibition between I and II ? Let me know the label of the one you choose.
Result: I
